System: progesterone receptor (T47D cells)
Assay: Antagonist assay in T47D (human breast cancer) cells (Tables 1 and 2)
Type: cell-based
Settings: concentration required to reduce the maximal response by 50%, read-out: Potency (IC50), T47D cells
Reported Metric: IC50 (µM)

Examples with answers:
1. C=C1CC[C@@H](Br)C(C)(C)[C@@H]1Cc1cc(OC)c(I)cc1O | 0.325
2. C=C1C=C(C)CC(C)(C)C1C/C=C/c1cc(OC)c(Br)cc1O (centres unmarked) | 1.6
3. C=C1CCCCC1Cc1cc(OC)c(Br)cc1O (centres unmarked) | 0.4

a = O=C1CCCCC1Cc1ccc([N+](=O)[O-])cc1 (centres unmarked)
b = COc1cc(CC2C(C)(C)CC(C)=CC23CC3)c(OC(C)=O)cc1Br (centres unmarked)
Out of a and b , name the one with the higher IC50. Mark your answer with the label of the selected entry.
b
(b: 0.44 µM, a: 0.2 µM)

====

Target: human progesterone receptor (Homo sapiens, UniProt P06401)
Sequence (P06401 1-933): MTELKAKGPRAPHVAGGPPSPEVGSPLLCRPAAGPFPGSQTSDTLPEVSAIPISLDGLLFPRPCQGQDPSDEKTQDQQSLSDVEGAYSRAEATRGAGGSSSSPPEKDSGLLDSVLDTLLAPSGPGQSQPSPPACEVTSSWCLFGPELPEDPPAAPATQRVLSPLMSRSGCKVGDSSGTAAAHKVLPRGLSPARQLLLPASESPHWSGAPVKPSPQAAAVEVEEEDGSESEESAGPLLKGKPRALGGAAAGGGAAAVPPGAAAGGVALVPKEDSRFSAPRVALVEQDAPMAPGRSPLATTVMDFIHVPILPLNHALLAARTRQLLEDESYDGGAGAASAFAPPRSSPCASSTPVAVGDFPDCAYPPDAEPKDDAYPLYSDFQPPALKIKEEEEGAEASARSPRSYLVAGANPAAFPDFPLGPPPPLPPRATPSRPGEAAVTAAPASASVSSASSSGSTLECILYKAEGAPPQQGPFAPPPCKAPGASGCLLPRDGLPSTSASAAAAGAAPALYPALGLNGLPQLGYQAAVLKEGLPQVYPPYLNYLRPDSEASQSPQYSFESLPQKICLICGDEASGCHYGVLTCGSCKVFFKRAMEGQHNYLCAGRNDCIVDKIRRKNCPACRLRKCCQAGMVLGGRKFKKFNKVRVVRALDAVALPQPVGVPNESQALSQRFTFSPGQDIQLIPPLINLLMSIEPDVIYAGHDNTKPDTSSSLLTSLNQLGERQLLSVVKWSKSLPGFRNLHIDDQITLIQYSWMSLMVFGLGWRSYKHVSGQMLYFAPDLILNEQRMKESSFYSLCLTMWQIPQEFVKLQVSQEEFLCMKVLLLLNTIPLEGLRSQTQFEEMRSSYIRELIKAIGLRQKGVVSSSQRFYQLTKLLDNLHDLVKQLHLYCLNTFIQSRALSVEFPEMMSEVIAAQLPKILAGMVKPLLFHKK
Test: Progesterone receptor binding (displacement of 3H-progesterone, whole cell extract of transfected CV-1 cells)
Reported Metric: Kd (nM)

Examples with answers:
1. C=C1CCCC(C)(C)C1Cc1cc(OC)c(Br)cc1OC(=O)OC (stereo in doubt) [R] | 230
2. C=C1C=CCC(C)(C)C1Cc1cc(OC)c(Br)cc1OC(C)=O (centres unmarked) [L] | 90
3. C=C1CC[C@@H](Br)C(C)(C)[C@H]1Cc1cc(OC)c(Br)cc1O [SO-54, (3S)-cyclocymopol monomethyl ether] | 325
4. C=C1CC[C@@H](Br)C(C)(C)[C@@H]1Cc1cc(OC)c(Br)cc1OC(=O)OC [T] | 185
5. C=C1C=C[C@@H](C)C(C)(C)[C@@H]1Cc1cc(OC)c(Br)cc1O (relative stereo) [KK] | 346
6. C=C1C[C@H](CCCO)CC(C)(C)[C@@H]1Cc1cc(OC)c(Br)cc1O (relative stereo) [X] | 384
7. C=C1CCCC(C)(C)C1Cc1cc(OC)c(Br)cc1OC(C)=O (racemic) [A] | 100
8. C=C1CC[C@@H](C)C(C)(C)[C@@H]1Cc1cc(OC)c(Br)cc1O (relative stereo) [LL] | 269
9. C=C1CCCC(C)(C)C1Cc1cc(OC)c(Br)cc1OC(=O)OC (stereo in doubt) [Compound D] | 50
10. C=C1CCCC(C)(C)C1Cc1ccc(Br)cc1 (centres unmarked) [O] | 445

I = C=C1CCC(C)(C)C1Cc1cc(OC)c(Br)cc1O (centres unmarked) [P]
II = C=C1CCCC(C)(C)C1Cc1cc(OC)c(Br)cc1OC(=O)c1ccccc1 (stereo in doubt) [U]
III = C=C1CCCC(C)(C)C1Cc1cc(OC)c(Br)cc1OC(C)=O (stereo in doubt) [B]
IV = C=C1CC[C@@H](Br)C(C)(C)[C@@H]1Cc1cc(OC)c(I)cc1O [V]
V = O=C1CCCCC1Cc1ccc([N+](=O)[O-])cc1 (centres unmarked) [F, 2-(4'-Nitrophenyl)methylcyclohexan-1-one]
Falling order of Kd, please. # list labels per requested ordering
V, I, II, IV, III
(V: 925 nM, I: 440 nM, II: 190 nM, IV: 95 nM, III: 35 nM)

a = C=C1C=C[C@@H](C)C(C)(C)[C@@H]1Cc1cc(OC)c(Br)cc1OC(C)=O (relative stereo) [N]
b = C=C1CCCCC1Cc1cc(OC)c(Br)cc1O (centres unmarked) [Compound S]
Out of a and b , name the one with the higher Kd. Mark your answer with the label of the selected entry.
b

====

Tested on: progesterone receptor (T47D cells)
Assay: Antagonist assay in T47D (human breast cancer) cells (Tables 1 and 2)
Type: cell-based
Conditions: concentration required to reduce the maximal response by 50%, read-out: Potency (IC50), T47D cells
Reported Metric: IC50 (µM)

Examples with answers:
1) C=C1C=C[C@@H](C)C(C)(C)[C@@H]1Cc1cc(OC)c(Br)cc1O (relative stereo) [KK] | 1.3
2) C=C1CCCCC1Cc1ccc([N+](=O)[O-])cc1 (stereo not drawn) [Q] | 0.225
3) C=C1CC[C@@H](Br)C(C)(C)[C@@H]1Cc1cc(OC)c(Br)cc1OC(=O)OC [T] | 0.3
4) CC1(C)CC=CC(=O)C1Cc1ccc([N+](=O)[O-])cc1 (stereo not drawn) [MM] | 0.39
5) C=C1CCCC(C)(C)C1Cc1cc(OC)c(Br)cc1OC(C)=O (racemic) [A] | 0.2

1 = C=C1CC[C@@H](Br)C(C)(C)[C@@H]1Cc1cc(OC)c(Br)cc1O [SO-53, (3R)-cyclocymopol monomethyl ether]
2 = C=C1CCCC(C)(C)C1Cc1ccc(Br)cc1 (stereo not drawn) [O]
Out of 1 and 2 , name the one with the higher IC50. Mark your answer with the label of the selected entry.
2

====

Test system: progesterone receptor (T47D cells)
Test: Antagonist assay in T47D (human breast cancer) cells (Tables 1 and 2)
Assay type: cell-based
Settings: concentration required to reduce the maximal response by 50%, read-out: Potency (IC50), T47D cells
Reported Metric: IC50 (µM)

1) C=C1CCCC(C)(C)C1Cc1cc(OC)c(Br)cc1OC(=O)OC (stereo in doubt) [Compound D] | 0.15

P = C=C1C=CCC(C)(C)C1Cc1ccc([N+](=O)[O-])c(C)c1 (centres unmarked) [M]
Q = C=C1C=C(C)CC(C)(C)C1Cc1ccc([N+](=O)[O-])cc1 (centres unmarked) [I]
R = C=C1C=C(C)CC(C)(C)C1Cc1ccc2nonc2c1 (centres unmarked) [FF]
S = C=C1C(C)=CCC(C)(C)C1Cc1cc(OC)c(Br)cc1OC(C)=O (stereo in doubt) [Z]
Falling order of IC50, please. # list labels per requested ordering
R, P, S, Q

Origin of measurements: patent US5808139A
